These measurements were taken from patent US20090239839A1.

# Subject Of Test: human-type OT7T022 (Homo sapiens, UniProt Q9GZQ6)
# Construct: expressed in transfected cells; host or cells: CHO cells (membrane fraction)
# Sequence (Q9GZQ6 whole entry): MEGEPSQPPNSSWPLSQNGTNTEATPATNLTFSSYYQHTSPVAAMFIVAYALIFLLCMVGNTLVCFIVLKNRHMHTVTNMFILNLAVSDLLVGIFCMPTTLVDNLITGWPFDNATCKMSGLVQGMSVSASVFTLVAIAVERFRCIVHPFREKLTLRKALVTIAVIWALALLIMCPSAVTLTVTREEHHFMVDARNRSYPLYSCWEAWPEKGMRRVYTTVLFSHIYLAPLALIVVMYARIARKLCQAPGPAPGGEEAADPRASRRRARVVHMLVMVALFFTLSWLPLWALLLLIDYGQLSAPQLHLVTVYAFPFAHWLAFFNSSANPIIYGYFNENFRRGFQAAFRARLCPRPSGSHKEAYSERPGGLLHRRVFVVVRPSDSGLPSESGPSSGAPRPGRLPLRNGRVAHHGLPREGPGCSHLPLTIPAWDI
# Assay Name: Binding inhibiting activity using human-type OT7T022-expressing CHO cell
# Test Context: 125I-labeled Y-RFRP-3 100 pM, membrane fraction, room temperature 1.5 hours; read-out: IC50 value (binding inhibiting rate)
Counter-ions that a name gives are not always drawn.
Endpoint Name: IC50

>>> test_value("CCCNC(=O)C[C@H]1O[C@H](c2cccc(OCCCNCCCc3ccccc3)c2OC)c2cc(Cl)ccc2N(CC(C)(C)C)C1=O (relative stereo) [Example 46, hydrochloride]")
"< 1000 nM"
>>> test_value("COc1c(OCCCNCCCc2ccccc2)cccc1[C@H]1O[C@H](CC(=O)N2CCNCC2)C(=O)N(CC(C)(C)C)c2ccc(Cl)cc21.Cl.Cl (relative stereo) [Example 50, dihydrochloride]")
"< 1000 nM"
>>> test_value("COc1c(OCCCNCCCc2ccccc2)cccc1[C@H]1O[C@H](CC(=O)NCc2ccccc2F)C(=O)N(CC(C)(C)C)c2ccc(Cl)cc21 (relative stereo) [Example 3, hydrochloride]")
"< 1000 nM"
>>> test_value("COc1c(OCCCNCCCc2ccccc2)cccc1[C@H]1O[C@H](CC(=O)N2CCNC(C(=O)O)C2)C(=O)N(CC(C)(C)C)c2ccc(Cl)cc21 (relative stereo) [Example 86, dihydrochloride]")
"< 1000 nM"
>>> test_value("COc1c(OCCCNCCCc2ccccc2Cl)cccc1[C@H]1O[C@H](CC(=O)NCc2ccccc2F)C(=O)N(CC(C)(C)C)c2ccc(Cl)cc21 (relative stereo) [Example 14, hydrochloride]")
"< 1000 nM"
>>> test_value("COc1c(OCCCNC/C=C/c2ccccc2)cccc1[C@H]1O[C@H](CC(=O)NCc2ccccc2F)C(=O)N(CC(C)(C)C)c2ccc(Cl)cc21 (relative stereo) [Example 18, hydrochloride]")
"< 1000 nM"
>>> test_value("CCCCCNCCCOc1cccc([C@H]2O[C@H](CC(=O)NCc3ccccc3F)C(=O)N(CC(C)(C)C)c3ccc(Cl)cc32)c1OC (relative stereo) [Example 4, hydrochloride]")
"< 1000 nM"
>>> test_value("COc1c(OCCCNCCCc2ccccc2)cccc1[C@H]1O[C@H](CC(=O)N2CCC(O)CC2)C(=O)N(CC(C)(C)C)c2ccc(Cl)cc21 (relative stereo) [Example 85, hydrochloride]")
"< 1000 nM"

###

# Subject Of Test: human-type OT7T022 (Homo sapiens)
# Construct: expressed in transfected cells; host or cells: CHO cells (membrane fraction)
# Assay Name: Antagonist activity in cAMP production inhibiting test system using human-type OT7T022-expressing CHO cell
# Type: cell-based
# Test Context: agonist human-type RFRP-3-8 20 nM + forskolin 2 μM, intracellular cAMP amount
Counter-ions that a name gives are not always drawn.
Endpoint Name: IC50

>>> test_value("COc1c(OCCCNCCCc2ccccc2)cccc1[C@H]1O[C@H](CC(=O)NCc2ccccc2F)C(=O)N(CC(C)(C)C)c2ccc(Cl)cc21 (relative stereo) [Example 3, hydrochloride]")
"< 1000 nM"
